Biological target: VEGF-R2 kinase domain (Rattus norvegicus, UniProt O08775)
Sequence (O08775 786-1343): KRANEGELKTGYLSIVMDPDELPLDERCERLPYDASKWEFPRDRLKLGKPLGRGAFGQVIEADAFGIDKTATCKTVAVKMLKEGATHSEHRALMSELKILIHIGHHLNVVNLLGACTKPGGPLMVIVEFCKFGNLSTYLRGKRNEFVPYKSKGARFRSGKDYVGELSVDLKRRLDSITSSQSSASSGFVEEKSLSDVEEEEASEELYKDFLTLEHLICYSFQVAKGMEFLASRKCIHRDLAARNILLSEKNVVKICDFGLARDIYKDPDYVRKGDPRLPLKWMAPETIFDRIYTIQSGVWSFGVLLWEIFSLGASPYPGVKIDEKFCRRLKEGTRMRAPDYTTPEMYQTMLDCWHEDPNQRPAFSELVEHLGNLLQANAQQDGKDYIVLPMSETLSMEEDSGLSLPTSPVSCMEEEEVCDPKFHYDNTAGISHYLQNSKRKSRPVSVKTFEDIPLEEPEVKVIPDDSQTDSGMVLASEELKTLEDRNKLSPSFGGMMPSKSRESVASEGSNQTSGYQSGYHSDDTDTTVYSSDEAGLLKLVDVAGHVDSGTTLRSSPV
PROPERTY: pIC50
The quantity pIC50 is defined as the negative base-10 logarithm of the molar concentration.

# example entries with known answers
>>> meas_value("COc1ccc2[nH]c(-c3cccc4c3C(=O)NC4)nc2c1")
6.85
>>> meas_value("COc1ccc2[nH]c(-c3cccc4c3C(=O)NC4)cc2c1")
6.95
>>> meas_value("O=C1NCc2cccc(-c3cc4cc(OCCN5CCCCC5)ccc4[nH]3)c21")
7.25
>>> meas_value("COc1ccc2c(c1)cc(-c1ccc([N+](=O)[O-])c3c1C(=O)NC3)n2C(=O)OC(C)(C)C")
5.82

**Q:** What does the record list as pIC50 for O=C1NCc2cccc(-c3cc4ccccc4[nH]3)c21 ?
**A:** 6.84

**Q:** Entry under review: COc1ccc2[nH]c(-c3ccc([N+](=O)[O-])c4c3C(=O)NC4)cc2c1 . Reported pIC50?
**A:** 7.64

**Q:** Returns the measured pIC50 for the input compound. Input: O=C1NCc2cccc(-c3cc4cc(OCCCN5CCCCC5)ccc4[nH]3)c21
**A:** 7.19

* * *

Target: Aurora-A (Mus musculus)
Construct: followed by the full length protein encoding the murine Aurora-A; polyhistidine (N); made in house; host or cells: Sf9 insect cells
Sequence (P97477 whole entry): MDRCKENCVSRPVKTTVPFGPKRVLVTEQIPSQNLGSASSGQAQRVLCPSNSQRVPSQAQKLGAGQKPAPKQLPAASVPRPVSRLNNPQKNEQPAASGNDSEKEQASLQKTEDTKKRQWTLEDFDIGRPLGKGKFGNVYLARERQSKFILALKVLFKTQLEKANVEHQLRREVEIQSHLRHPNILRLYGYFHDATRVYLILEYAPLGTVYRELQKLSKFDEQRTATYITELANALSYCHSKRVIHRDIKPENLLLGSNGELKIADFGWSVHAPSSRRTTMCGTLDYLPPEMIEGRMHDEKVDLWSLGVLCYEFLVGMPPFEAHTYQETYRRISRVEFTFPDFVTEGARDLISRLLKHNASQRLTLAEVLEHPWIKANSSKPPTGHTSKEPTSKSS
Assay: Aurora-A screening assay (33P-ATP FlashPlate kinase assay)
Assay type: biochemical, murine
Details: single test concentration 100 μM; read-out: Aurora-A percent inhibition
Procedure: 70 μL of the kinase reaction mixture was dispensed into the well of a streptavidin coated FlashPlate™ (Cat. # SMP103, NEN, Boston, Mass.). Test compound stock in 100% DMSO (1 μL) was added to the wells resulting in a final concentration of 1% DMSO in the reaction with a 100 μL final reaction volume. […] The biotinylated peptide substrate became immobilized on the Flashplate™ and the incorporation of ^33P-γ-ATP was measured by reading the plate on a scintillation counter. […]
PROPERTY: inhibition at 100 µM (%)
Express the result in % but write the number alone.

For orientation, consider the following solved cases.
>>> meas_value("O=C1NCc2cccc(-c3c[nH]c4ccccc34)c21")
60
>>> meas_value("CC(C)(C)OC(=O)n1c(-c2cccc3c2C(=O)NC3)cc2ccccc21")
61

**Q:** // inhibition at 100 µM lookup, key: CC(C)(C)OC(=O)n1c(-c2cccc3c2C(=O)NC3)cc2cc(OCCN3CCOCC3)ccc21
**A:** 57

**Q:** Need inhibition at 100 µM, item CC(C)(C)OC(=O)n1c(-c2cccc3c2C(=O)NC3)cc2cc(OCCN3CCCCC3)ccc21
**A:** 58

**Q:** Query (compound): COc1cc2c(c(-c3cc4cc(OC)ccc4n3C(=O)OC(C)(C)C)c1)C(=O)NC2 ; field requested: inhibition at 100 µM
**A:** 40

**Q:** Report inhibition at 100 µM for CC(C)(C)OC(=O)n1cccc1-c1cccc2c1C(=O)NC2 please.
**A:** 25

**Q:** Find the recorded inhibition at 100 µM belonging to COc1ccc2[nH]c(-c3ccc(NC(C)=O)c4c3C(=O)NC4)cc2c1 and report it.
**A:** 64
